- experimentalTarget: Cytochrome P450 3A4 (Homo sapiens) (UniProt P08684)
- Sequence (P08684 whole entry, looked up): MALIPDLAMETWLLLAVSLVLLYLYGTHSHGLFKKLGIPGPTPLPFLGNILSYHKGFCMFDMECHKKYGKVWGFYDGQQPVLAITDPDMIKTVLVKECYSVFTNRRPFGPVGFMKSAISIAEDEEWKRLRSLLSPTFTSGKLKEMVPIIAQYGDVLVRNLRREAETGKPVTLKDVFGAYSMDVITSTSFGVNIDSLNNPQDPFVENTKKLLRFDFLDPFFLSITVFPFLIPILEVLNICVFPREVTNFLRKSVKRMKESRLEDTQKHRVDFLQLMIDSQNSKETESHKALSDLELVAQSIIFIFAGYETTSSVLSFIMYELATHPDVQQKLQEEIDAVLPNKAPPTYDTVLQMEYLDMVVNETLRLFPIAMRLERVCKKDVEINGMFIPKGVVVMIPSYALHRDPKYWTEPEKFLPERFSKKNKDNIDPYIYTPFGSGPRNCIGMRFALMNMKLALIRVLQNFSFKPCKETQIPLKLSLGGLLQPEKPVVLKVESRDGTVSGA
- procedureText: qHTS Assay for Inhibitors and Substrates of Cytochrome P450 3A4 (AID 884); note: nearly all actives have a fitted effect of over 50% in size
- assayContext: recombinant CYP3A4, Luciferin-PPXE luminescence; series mostly up to 57.1 µM
Results filed as inconclusive are left out. Calls of active or inactive are those of the source. Calls come from the whole dose curve; as a rule, active = well fitted inhibition curve with a large enough effect; inconclusive = small, poorly fitted or top-dose-only effect; inactive = no such curve, though single readings can be large or run the other way.
Outcome codes: active, inactive

compound: C[C@@]12CCC(Cl)C[C@H]1CCC1C2CC[C@]2(C)C(=O)CCC12 (stereo partly specified)
experimentalTarget: Cytochrome P450 3A4 (Homo sapiens) (UniProt P08684)
cat: inactive
--
compound: C=C(C)c1cc2cc(C(C)=O)c(O)cc2o1
experimentalTarget: Cytochrome P450 3A4 (Homo sapiens) (UniProt P08684)
cat: active
--
compound: CC(C)NC(=O)N1CC[C@@]2(CCCNC2)C1
experimentalTarget: Cytochrome P450 3A4 (Homo sapiens) (UniProt P08684)
cat: inactive
--
compound: Clc1ccc2ccccc2c1
experimentalTarget: Cytochrome P450 3A4 (Homo sapiens) (UniProt P08684)
cat: inactive
--
compound: CCOC(=O)C1C(C=C(C)C)C1(C)C (stereo unspecified)
experimentalTarget: Cytochrome P450 3A4 (Homo sapiens) (UniProt P08684)
cat: inactive
--
compound: COc1ccc(N)cc1
experimentalTarget: Cytochrome P450 3A4 (Homo sapiens) (UniProt P08684)
cat: inactive
--
compound: Cc1cccc(C#N)c1
experimentalTarget: Cytochrome P450 3A4 (Homo sapiens) (UniProt P08684)
cat: inactive
--
compound: O=C(NC(=O)c1ccccc1Cl)Nc1ccc(OC(F)(F)F)cc1
experimentalTarget: Cytochrome P450 3A4 (Homo sapiens) (UniProt P08684)
cat: inactive
--
compound: ClC(Cl)=C(Cl)C(Cl)=C(Cl)Cl
experimentalTarget: Cytochrome P450 3A4 (Homo sapiens) (UniProt P08684)
cat: inactive
--
compound: COC1=CC(=O)O[C@@H](/C=C/c2ccc3c(c2)OCO3)C1
experimentalTarget: Cytochrome P450 3A4 (Homo sapiens) (UniProt P08684)
cat: active
--
compound: C[C@@]12CCC(=O)C[C@@H]1CC[C@@H]1[C@@H]2CC[C@]2(C)C(=O)CC[C@@H]12
experimentalTarget: Cytochrome P450 3A4 (Homo sapiens) (UniProt P08684)
cat: inactive
--
compound: C[C@]12CC[C@H](O)C[C@@H]1CC[C@H]1[C@H]2CC[C@]2(C)C(=O)CC[C@@H]12
experimentalTarget: Cytochrome P450 3A4 (Homo sapiens) (UniProt P08684)
cat: inactive
--
compound: OC[C@@H]1CCCN2CCCC[C@@H]12
experimentalTarget: Cytochrome P450 3A4 (Homo sapiens) (UniProt P08684)
cat: inactive
--
compound: COP(=S)(OC)Oc1ccc([N+](=O)[O-])cc1
experimentalTarget: Cytochrome P450 3A4 (Homo sapiens) (UniProt P08684)
cat: active
--
compound: C[C@@]12CCC3C(CCC4=CC(=O)CC[C@]43C)C1CCC2O (stereo partly specified)
experimentalTarget: Cytochrome P450 3A4 (Homo sapiens) (UniProt P08684)
cat: inactive
--
compound: C=CC1CC=CCC1 (stereo unspecified)
experimentalTarget: Cytochrome P450 3A4 (Homo sapiens) (UniProt P08684)
cat: inactive
--
compound: CCSC(=O)Cl
experimentalTarget: Cytochrome P450 3A4 (Homo sapiens) (UniProt P08684)
cat: inactive
--
compound: C=C(C)C#N
experimentalTarget: Cytochrome P450 3A4 (Homo sapiens) (UniProt P08684)
cat: inactive
--
compound: c1ccc2c(c1)[nH]c1cnccc12
experimentalTarget: Cytochrome P450 3A4 (Homo sapiens) (UniProt P08684)
cat: inactive
--
compound: COc1cc2c(c(OC)c1OC)-c1ccc(O)c(=O)cc1[C@@H](NC(C)=O)CC2
experimentalTarget: Cytochrome P450 3A4 (Homo sapiens) (UniProt P08684)
cat: inactive
--
compound: Oc1ccc(Cl)cc1Cl
experimentalTarget: Cytochrome P450 3A4 (Homo sapiens) (UniProt P08684)
cat: inactive
--
compound: CC[C@@]1(O)CC(O)c2c(cc3c(c2O)C(=O)c2c(O)ccc(O)c2C3=O)C1C(=O)OC (stereo partly specified)
experimentalTarget: Cytochrome P450 3A4 (Homo sapiens) (UniProt P08684)
cat: active
--
compound: C=C1C([C@@]2(C)C(OC(C)=O)CC(=O)O[C@@](C)(COC(C)=O)C2CC(=O)OC)C(OC=O)C(OC(=O)C(OC(C)=O)C(C)CC)[C@]2(C)C(c3ccoc3)CC(=O)C12O (stereo partly specified)
experimentalTarget: Cytochrome P450 3A4 (Homo sapiens) (UniProt P08684)
cat: active
--
compound: CC1(C)N([O-])[N+](=O)C1(C)Br (stereo unspecified)
experimentalTarget: Cytochrome P450 3A4 (Homo sapiens) (UniProt P08684)
cat: inactive
--
compound: CC(O)CCl (stereo unspecified)
experimentalTarget: Cytochrome P450 3A4 (Homo sapiens) (UniProt P08684)
cat: inactive
--
compound: C[N+]1(C)C2CC(OC(=O)C(CO)c3ccccc3)CC1C1OC12 (stereo unspecified)
experimentalTarget: Cytochrome P450 3A4 (Homo sapiens) (UniProt P08684)
cat: inactive
--
compound: C=CC1CN2CCC1CC2C(OC(=O)OCC)c1ccnc2ccc(OC)cc12 (stereo unspecified)
experimentalTarget: Cytochrome P450 3A4 (Homo sapiens) (UniProt P08684)
cat: active
--
compound: COC1CC(OC2CC[C@@]3(C=O)C4CC[C@]5(C)C(C6=CC(=O)OC6)CC[C@@]5(O)C4CC[C@]3(O)C2)OC(C)C1O (stereo partly specified)
experimentalTarget: Cytochrome P450 3A4 (Homo sapiens) (UniProt P08684)
cat: inactive
--
compound: CC(C)(C)OOC(C)(C)C
experimentalTarget: Cytochrome P450 3A4 (Homo sapiens) (UniProt P08684)
cat: inactive
--
compound: CC(=O)OC1C[C@@]2(C)C(c3ccoc3)C[C@H]3O[C@@]32[C@@]2(C)C(=O)C(O)=C3C(C)(C)C(=O)C=C[C@]3(C)C12 (stereo partly specified)
experimentalTarget: Cytochrome P450 3A4 (Homo sapiens) (UniProt P08684)
cat: active
--
compound: COc1ccc(C=O)cc1OC
experimentalTarget: Cytochrome P450 3A4 (Homo sapiens) (UniProt P08684)
cat: inactive
--
compound: FC(F)(F)c1cccc(N2CCNCC2)c1
experimentalTarget: Cytochrome P450 3A4 (Homo sapiens) (UniProt P08684)
cat: inactive
--
compound: C#CCOS(=O)OC1CCCCC1Oc1ccc(C(C)(C)C)cc1 (stereo unspecified)
experimentalTarget: Cytochrome P450 3A4 (Homo sapiens) (UniProt P08684)
cat: inactive
--
compound: C[C@]1(C(=O)O)CCC[C@]2(C)c3cc(O)ccc3CC[C@@H]12
experimentalTarget: Cytochrome P450 3A4 (Homo sapiens) (UniProt P08684)
cat: inactive
--
compound: O=[N+]([O-])c1ccc(Cl)c(Cl)c1
experimentalTarget: Cytochrome P450 3A4 (Homo sapiens) (UniProt P08684)
cat: inactive
--
compound: C[C@H]1C(=O)O[C@H]2CCN3CC=C(COC(=O)[C@](C)(O)[C@@]1(C)O)C23 (stereo partly specified)
experimentalTarget: Cytochrome P450 3A4 (Homo sapiens) (UniProt P08684)
cat: inactive
--
compound: N#Cc1ccc(CN2CC[C@@]3(CCCN(C(=O)Oc4ccccc4)C3)C2)cc1
experimentalTarget: Cytochrome P450 3A4 (Homo sapiens) (UniProt P08684)
cat: active
--
compound: CC1(C)C(O)CC(O)[C@]2(C)C1CC(O)[C@]1(C)C2CC[C@@]2(C)C(c3ccoc3)OC(=O)C3O[C@]312 (stereo partly specified)
experimentalTarget: Cytochrome P450 3A4 (Homo sapiens) (UniProt P08684)
cat: active
--
compound: COP(N)(=O)SC (stereo unspecified)
experimentalTarget: Cytochrome P450 3A4 (Homo sapiens) (UniProt P08684)
cat: inactive
--
compound: CC(=O)OC1CC(OC(C)=O)[C@]2(C)C(CC(OC(C)=O)[C@]3(C)C2CC[C@@]2(C)C(c4ccoc4)C[C@H]4O[C@]432)C1(C)C (stereo partly specified)
experimentalTarget: Cytochrome P450 3A4 (Homo sapiens) (UniProt P08684)
cat: inactive
--
compound: O=C(O)CCC1NCC2CC1CN1CCCCC21 (stereo unspecified)
experimentalTarget: Cytochrome P450 3A4 (Homo sapiens) (UniProt P08684)
cat: inactive
--
compound: CNc1ccccc1C(=O)O
experimentalTarget: Cytochrome P450 3A4 (Homo sapiens) (UniProt P08684)
cat: inactive
--
compound: COc1cc2c(cc1O)CCNC2C (stereo unspecified)
experimentalTarget: Cytochrome P450 3A4 (Homo sapiens) (UniProt P08684)
cat: inactive
--
compound: Nc1ccccc1Cl
experimentalTarget: Cytochrome P450 3A4 (Homo sapiens) (UniProt P08684)
cat: inactive
--
compound: ClC(Cl)(Cl)c1ccccc1
experimentalTarget: Cytochrome P450 3A4 (Homo sapiens) (UniProt P08684)
cat: inactive
--
compound: N#C/C(=C\c1cccc(O)c1)C(=O)O
experimentalTarget: Cytochrome P450 3A4 (Homo sapiens) (UniProt P08684)
cat: inactive
--
compound: c1ccc(-c2ccccc2)cc1
experimentalTarget: Cytochrome P450 3A4 (Homo sapiens) (UniProt P08684)
cat: inactive
--
compound: Brc1ccc(Oc2cc(Br)c(Br)cc2Br)c(Br)c1
experimentalTarget: Cytochrome P450 3A4 (Homo sapiens) (UniProt P08684)
cat: inactive
--
compound: CCS(=O)CCSP(=O)(OC)OC (stereo unspecified)
experimentalTarget: Cytochrome P450 3A4 (Homo sapiens) (UniProt P08684)
cat: inactive
--
compound: CC(=O)OC1CCC23C(=O)OC45CCC(C6=CC(=O)OC6)C4(C)CCC2C5CCC3(O)C1 (stereo unspecified)
experimentalTarget: Cytochrome P450 3A4 (Homo sapiens) (UniProt P08684)
cat: inactive
--
compound: Cc1ccc([N+](=O)[O-])cc1C
experimentalTarget: Cytochrome P450 3A4 (Homo sapiens) (UniProt P08684)
cat: inactive

Values were extracted from PubChem BioAssay (NCATS).
